- Species on record: Rattus norvegicus
- Protocol: DrugMatrix - Regimen: Daily Repeat
- Type: toxicity, organism-based, Sprague-Dawley
- Parameters: regimen Daily Repeat, gender Male, age 6-8 weeks
- Study conditions: in vivo, po, 0 mg/kg, 72 h, tissue Plasma, route oral GAVAGE, dose level Control, time 3 day, […]
Result type: CARBON DIOXIDE (mmol/L)

INSERT INTO measurements (compound, result_type, reported_value) VALUES
  ('O=c1oc2ccccc2c(O)c1Cc1c(O)c2ccccc2oc1=O', 'CARBON DIOXIDE', 34.17),
  ('C[C@H]1O[C@@H](O[C@H]2[C@@H](O)C[C@H](O[C@H]3[C@@H](O)C[C@H](O[C@H]4CC[C@@]5(C)[C@H](CC[C@@H]6[C@@H]5C[C@@H](O)[C@]5(C)[C@@H](C7=CC(=O)OC7)CC[C@]65O)C4)O[C@@H]3C)O[C@@H]2C)C[C@H](O)[C@@H]1O', 'CARBON DIOXIDE', 33.17),
  ('Cc1noc(NS(=O)(=O)c2ccc(N)cc2)c1C', 'CARBON DIOXIDE', 29.33),
  ('O=NN(CCCl)C(=O)NC1CCCCC1', 'CARBON DIOXIDE', 30.33),
  ('CC(C)(Oc1ccc(Cl)cc1)C(=O)O', 'CARBON DIOXIDE', 27.83),
  ('CCC(C)n1ncn(-c2ccc(N3CCN(c4ccc(OCC5COC(Cn6cncn6)(c6ccc(Cl)cc6Cl)O5)cc4)CC3)cc2)c1=O (centres undefined)', 'CARBON DIOXIDE', 25.5),
  ('O=C(O)CCCc1ccc(N(CCCl)CCCl)cc1', 'CARBON DIOXIDE', 25.5),
  ('OC(Cn1cncn1)(Cn1cncn1)c1ccc(F)cc1F', 'CARBON DIOXIDE', 25.5),
  ('CC(C)C(=O)Nc1ccc([N+](=O)[O-])c(C(F)(F)F)c1 [FLUTAMIDE]', 'CARBON DIOXIDE', 27.5),
  ('C[C@@H]1CN(c2c(F)c(N)c3c(=O)c(C(=O)O)cn(C4CC4)c3c2F)C[C@H](C)N1', 'CARBON DIOXIDE', 30.33),
  ('CCOC(=O)C1=C(COCCN)NC(C)=C(C(=O)OC)C1c1ccccc1Cl (centres undefined)', 'CARBON DIOXIDE', 30.33),
  ('Cc1ccc(-c2cc(C(F)(F)F)nn2-c2ccc(S(N)(=O)=O)cc2)cc1', 'CARBON DIOXIDE', 25.5),
  ('CN(C)c1nc(N(C)C)nc(N(C)C)n1', 'CARBON DIOXIDE', 30.33),
  ('Cc1oncc1C(=O)Nc1ccc(C(F)(F)F)cc1 [LEFLUNOMIDE]', 'CARBON DIOXIDE', 25);

----------
The entries below come with measured NEUTROPHIL values attached.
- Species on record: Rattus norvegicus
- Protocol: DrugMatrix - Regimen: Daily Repeat
- Assay type: toxicity, organism-based, Sprague-Dawley
- Parameters: regimen Daily Repeat, gender Male, age 6-8 weeks
- Study conditions: in vivo, po, 0 mg/kg, 72 h, tissue Blood, route oral GAVAGE, dose level Control, time 3 day, vehicle .5 % CMC
Result type: NEUTROPHIL (%)

INSERT INTO measurements (compound, result_type, measurement_units, reported_value) VALUES
  ('OCCN(CCO)c1nc(N2CCCCC2)c2nc(N(CCO)CCO)nc(N3CCCCC3)c2n1', 'NEUTROPHIL', '%', 10.83),
  ('Cc1nc2n(c(=O)c1CCN1CCC(c3noc4cc(F)ccc34)CC1)CCCC2', 'NEUTROPHIL', '%', 13.8),
  ('CCn1cc(C(=O)O)c(=O)c2cc(F)c(N3CCNCC3)cc21', 'NEUTROPHIL', '%', 7.17),
  ('CCCCc1oc2ccccc2c1C(=O)c1cc(I)c(OCCN(CC)CC)c(I)c1', 'NEUTROPHIL', '%', 13.8),
  ('ClC(Cl)Br', 'NEUTROPHIL', '%', 14.5),
  ('NC1=NC(=O)C(c2ccccc2)O1 (centres undefined)', 'NEUTROPHIL', '%', 13),
  ('C1CCC(C(CC2CCCCN2)C2CCCCC2)CC1 (centres undefined)', 'NEUTROPHIL', '%', 19),
  ('CC(C)(C)NC(=O)[C@@H]1C[C@@H]2CCCC[C@@H]2CN1C[C@@H](O)[C@H](Cc1ccccc1)NC(=O)[C@H](CC(N)=O)NC(=O)c1ccc2ccccc2n1', 'NEUTROPHIL', '%', 9.33),
  ('Nc1ccn([C@H]2CC[C@@H](CO)O2)c(=O)n1', 'NEUTROPHIL', '%', 21.17),
  ('Cc1ccc(/N=C/N(C)/C=N/c2ccc(C)cc2C)c(C)c1', 'NEUTROPHIL', '%', 7.17),
  ('CN1CCN(CCCN2c3ccccc3Sc3ccc(Cl)cc32)CC1', 'NEUTROPHIL', '%', 11.33),
  ('O=C(CCCN1CC=C(n2c(=O)[nH]c3ccccc32)CC1)c1ccc(F)cc1', 'NEUTROPHIL', '%', 18.6),
  ('COc1nc(C)nc(Cl)c1N=C1NCCN1', 'NEUTROPHIL', '%', 8.5),
  ('ClC(Br)Br', 'NEUTROPHIL', '%', 14.5),
  ('CC1CC(OC(=O)C(O)c2ccccc2)CC(C)(C)C1 (centres undefined) [CYCLANDELATE]', 'NEUTROPHIL', '%', 10.83),
  ('Cc1ccc2cc3c(ccc4ccccc43)c3c2c1CC3', 'NEUTROPHIL', '%', 14.73),
  ('CCCN1C[C@H](CSC)C[C@@H]2c3cccc4[nH]cc(c34)C[C@H]21 [PERGOLIDE]', 'NEUTROPHIL', '%', 7.17),
  ('N=C(N)NCCN1CCCCCCC1', 'NEUTROPHIL', '%', 10.83),
  ('CCOP(=S)(OCC)Oc1nc(Cl)c(Cl)cc1Cl', 'NEUTROPHIL', '%', 9.1);

----------
- Organism: Rattus norvegicus
- Protocol: DrugMatrix - Regimen: Daily Repeat
- Format: toxicity, organism-based, Sprague-Dawley
- Parameters: regimen Daily Repeat, gender Male, age 6-8 weeks
- Study conditions: in vivo, po, 0 mg/kg, […], tissue Blood, route oral GAVAGE, dose level Control, time 14 day, vehicle 100 % WATER
Result type: ABSOLUTE BASOPHIL (cells/µL)

INSERT INTO assay_data (molecule, reported_value) VALUES
  ('COCCc1ccc(OCC(O)CNC(C)C)cc1 (stereo unspecified)', 130);

----------
Documented MONOCYTE across a set of compounds
- Species: Rattus norvegicus
- Protocol: DrugMatrix - Regimen: Daily Repeat
- Format: toxicity, organism-based, Sprague-Dawley
- Parameters: regimen Daily Repeat, gender Male, age 6-8 weeks
- Study conditions: in vivo, po, 0 mg/kg, 120 h, tissue Blood, route oral GAVAGE, dose level Control, time 5 day, vehicle 100 % WATER
Result type: MONOCYTE (%)

INSERT INTO assay_data (compound, result_type, measurement_units, reported_value) VALUES
  ('COc1cc2nc(N3CCN(C(=O)C4COc5ccccc5O4)CC3)nc(N)c2cc1OC (stereo not given) [DOXAZOSIN]', 'MONOCYTE', '%', 1.67),
  ('Cc1onc(-c2ccccc2Cl)c1C(=O)N[C@@H]1C(=O)N2[C@@H]1SC(C)(C)[C@@H]2C(=O)O [CLOXACILLIN]', 'MONOCYTE', '%', 1.33),
  ('C[C@H](CS)C(=O)N1CCC[C@H]1C(=O)O [CAPTOPRIL]', 'MONOCYTE', '%', 1),
  ('C=CCC1(C(C)CCC)C(=O)NC(=O)NC1=O (stereo not given) [SECOBARBITAL]', 'MONOCYTE', '%', 0.67),
  ('CN(C)CCCN1c2ccccc2Sc2ccc(Cl)cc21 [CHLORPROMAZINE]', 'MONOCYTE', '%', 1.67),
  ('C[C@](N)(Cc1ccc(O)c(O)c1)C(=O)O [METHYLDOPA]', 'MONOCYTE', '%', 3.17),
  ('CC(O)CO (stereo not given) [PROPYLENE GLYCOL]', 'MONOCYTE', '%', 1.33),
  ('Nc1c2c(nc3ccccc13)CCCC2 [TACRINE]', 'MONOCYTE', '%', 3),
  ('c1ccc([C@H]2CN3CCSC3=N2)cc1 [LEVAMISOLE]', 'MONOCYTE', '%', 1.17),
  ('C[C@H]1c2cccc(O)c2C(=O)C2=C(O)[C@]3(O)C(=O)C(C(N)=O)=C(O)[C@@H](N(C)C)[C@@H]3[C@@H](O)[C@@H]21.O [DOXYCYCLINE]', 'MONOCYTE', '%', 1.67),
  ('Cn1cc[nH]c1=S [METHIMAZOLE]', 'MONOCYTE', '%', 1),
  ('N[C@@H](Cc1ccc(O)c(O)c1)C(=O)O [LEVODOPA]', 'MONOCYTE', '%', 1.67),
  ('NCCCCCC(=O)O [AMINOCAPROIC ACID]', 'MONOCYTE', '%', 1.33),
  ('CNNCc1ccc(C(=O)NC(C)C)cc1 [PROCARBAZINE]', 'MONOCYTE', '%', 0.17),
  ('Clc1cccc(Cl)c1N=C1NCCN1 [CLONIDINE]', 'MONOCYTE', '%', 0.5);
